B1: SOAT1 (parent)
chain: VYYIFERLCAPLFRNIKQEPFSAR

Variants of: B1
Assay: protein stability index of a GFP-peptide fusion (GPS, HEK-293T) (PSI 1-6); higher = more stable;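 further: lentivirally expressed fusions sorted by FACS into six bins by GFP to DsRed ratio, PSI derived from sequencing read proportions per bin multiplied by bin number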
Settings: c terminus: a fixed tail appended
The reader will find reported protein stability index values listed item by item below.
Observable: protein stability index

INSERT INTO assay_data (mutant_name, observable, reported_value) VALUES
  ('F13A', 'protein stability index', 1.96),
  ('V1Q', 'protein stability index', 1.32),
  ('R7T', 'protein stability index', 1.74),
  ('N15W', 'protein stability index', 2.15),
  ('Y3K', 'protein stability index', 2.5),
  ('Y3F', 'protein stability index', 2.75),
  ('E6P', 'protein stability index', 1.83),
  ('R14I', 'protein stability index', 2.04),
  ('R24A', 'protein stability index', 2.27),
  ('V1C', 'protein stability index', 1.17),
  ('R7W', 'protein stability index', 3.93),
  ('R14C', 'protein stability index', 2.71),
  ('E6D', 'protein stability index', 3),
  ('A23Y', 'protein stability index', 3.86),
  ('Y2E', 'protein stability index', 3.36),
  ('Y2M', 'protein stability index', 2.83),
  ('N15V', 'protein stability index', 1.82),
  ('Y2T', 'protein stability index', 2.97),
  ('Y3A', 'protein stability index', 2.26),
  ('Y3Q', 'protein stability index', 3.86),
  ('P11E', 'protein stability index', 1.76),
  ('A23S', 'protein stability index', 2.8),
  ('A23L', 'protein stability index', 2.55),
  ('I16K', 'protein stability index', 2.45),
  ('A23T', 'protein stability index', 1.42),
  ('Y2C', 'protein stability index', 1.3),
  ('E19T', 'protein stability index', 2.27),
  ('V1L', 'protein stability index', 2.5),
  ('C9S', 'protein stability index', 2.34),
  ('F21I', 'protein stability index', 2.94);
